Target: EGFR L858R (BaF3-L858R cells) (Homo sapiens, UniProt P00533, L858R)
Construct: host or cells: BaF3
Sequence (P00533 25-1210 L858R): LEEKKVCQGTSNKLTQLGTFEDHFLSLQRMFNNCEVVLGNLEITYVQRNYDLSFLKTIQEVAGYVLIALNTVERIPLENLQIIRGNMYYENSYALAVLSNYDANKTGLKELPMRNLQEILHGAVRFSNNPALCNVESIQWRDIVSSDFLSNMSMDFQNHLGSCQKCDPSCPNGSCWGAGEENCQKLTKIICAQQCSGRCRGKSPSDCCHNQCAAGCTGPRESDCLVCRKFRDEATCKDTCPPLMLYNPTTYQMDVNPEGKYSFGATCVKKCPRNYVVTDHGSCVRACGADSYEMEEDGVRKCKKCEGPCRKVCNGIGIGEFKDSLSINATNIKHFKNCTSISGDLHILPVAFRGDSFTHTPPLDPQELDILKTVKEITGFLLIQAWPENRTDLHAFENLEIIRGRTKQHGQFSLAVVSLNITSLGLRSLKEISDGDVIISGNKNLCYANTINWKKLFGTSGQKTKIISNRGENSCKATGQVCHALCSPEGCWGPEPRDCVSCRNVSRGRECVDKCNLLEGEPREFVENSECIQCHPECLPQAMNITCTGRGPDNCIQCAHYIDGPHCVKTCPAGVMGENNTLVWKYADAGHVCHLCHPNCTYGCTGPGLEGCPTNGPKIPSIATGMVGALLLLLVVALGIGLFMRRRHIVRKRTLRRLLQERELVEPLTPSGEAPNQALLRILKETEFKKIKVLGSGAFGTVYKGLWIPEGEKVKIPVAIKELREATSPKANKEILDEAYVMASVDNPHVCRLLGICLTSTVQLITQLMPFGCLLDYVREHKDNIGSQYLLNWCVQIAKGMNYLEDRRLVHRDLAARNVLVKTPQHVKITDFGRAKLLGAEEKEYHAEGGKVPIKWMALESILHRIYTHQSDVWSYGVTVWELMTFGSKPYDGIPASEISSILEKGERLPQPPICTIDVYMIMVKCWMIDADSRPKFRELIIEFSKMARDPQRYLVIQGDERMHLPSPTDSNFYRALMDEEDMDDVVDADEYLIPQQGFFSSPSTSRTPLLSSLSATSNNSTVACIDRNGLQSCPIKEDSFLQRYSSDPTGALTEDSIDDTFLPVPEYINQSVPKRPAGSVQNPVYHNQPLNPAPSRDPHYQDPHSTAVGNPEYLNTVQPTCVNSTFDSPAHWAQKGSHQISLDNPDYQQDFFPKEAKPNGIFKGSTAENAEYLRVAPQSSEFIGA
Experiment: Cell degradation of EGFR, HTRF assay, BaF3-L858R cells
Format: cell-based
Settings: 16 h treatment, EGFR degradation
Catalogue of DC50 values
For clarity, give the value followed by its unit.

Suppose we examine the compound COC[C@@H]1CN(c2ccc3c(c2)N2C[C@@H]4CC[C@H](COc5c(c(C)nn5C)-c5cc(cc(C)n5)C(=O)/N=C/2N3)C4)CCN1C1CCN(c2c(C)cc(C3CCC(=O)NC3=O)nc2C)CC1 (stereo partly drawn) ; what DC50 value has been reported?
1.04 nM

Suppose we examine the compound Cc1cc2cc(n1)-c1cnn(C)c1OC[C@H]1CCC(C1)CN1/C(=N/C2=O)Nc2ccc(N3CCN(C4CCN(c5cc(F)c([C@H]6CCC(=O)NC6=O)c(F)c5)CC4)[C@@H](CO)C3)cc21 ; what DC50 value has been reported?
1.6 nM

Suppose we examine the compound CCc1nc(C2CCC(=O)NC2=O)ccc1N1CCC(N2CCN(c3ccc4c(c3)N3C[C@@H]5CC[C@H](COc6c(cnn6C)-c6cc(cc(C)n6)C(=O)/N=C/3N4)C5)CC2)CC1 (stereo partly drawn) ; what DC50 value has been reported?
1.23 nM
